Sourced from patent US9149536B2

For each record, write down the corresponding MIC ratio XL1 blue/pET9d to XL1 blue.
Test system: E. coli XL1 blue/pET9d
Test: microbe, parasite or virus in culture
Type: cell-based
Settings: MIC resistant strain divided by MIC background strain

Please indicate MIC ratio XL1 blue/pET9d to XL1 blue recorded for NCC1OC(OC2C(C(=O)NCc3cn(CC(O)CN4CCN(c5cc6c(cc5F)c(=O)c(C(=O)O)cn6C5CC5)CC4)nn3)OC(OC3C(O)C(N)CC(N)C3OC3OC(CN)C(O)C(O)C3N)C2O)C(N)C(O)C1O (centres unmarked) 2

Please indicate MIC ratio XL1 blue/pET9d to XL1 blue recorded for NCC1OC(OC2C(COCc3cn(CCN4CCN(c5cc6c(cc5F)c(=O)c(C(=O)O)cn6C5CC5)CC4)nn3)OC(OC3C(O)C(N)CC(N)C3OC3OC(CN)C(O)C(O)C3N)C2O)C(N)C(O)C1O (centres unmarked) 4

Please indicate MIC ratio XL1 blue/pET9d to XL1 blue recorded for NCC1OC(OC2C(C(=O)NCc3cn(Cc4ccc(CN5CCN(c6cc7c(cc6F)c(=O)c(C(=O)O)cn7C6CC6)CC5)cc4)nn3)OC(OC3C(O)C(N)CC(N)C3OC3OC(CN)C(O)C(O)C3N)C2O)C(N)C(O)C1O (centres unmarked) 1

Please indicate MIC ratio XL1 blue/pET9d to XL1 blue recorded for NCC1OC(OC2C(C(=O)NCc3cn(Cc4cccc(CN5CCN(c6cc7c(cc6F)c(=O)c(C(=O)O)cn7C6CC6)CC5)c4)nn3)OC(OC3C(O)C(N)CC(N)C3OC3OC(CN)C(O)C(O)C3N)C2O)C(N)C(O)C1O (centres unmarked) 1

Please indicate MIC ratio XL1 blue/pET9d to XL1 blue recorded for NC[C@@H]1O[C@H](O[C@H]2[C@@H](O)[C@H](O[C@@H]3[C@@H](O)[C@H](N)C[C@H](N)[C@H]3O[C@H]3O[C@H](CN)[C@@H](O)[C@H](O)[C@H]3N)O[C@@H]2CO)[C@H](N)[C@@H](O)[C@@H]1O [NeoB, neomycin B, reference compound] 16

* * *

For each record, write down the corresponding MIC MRSA ATCC 43300.
Tested on: MRSA ATCC 43300
Test: microbe, parasite or virus in culture
Type: cell-based, S. aureus
Conditions: Table 4
I'd appreciate it if you wrote the number followed by its unit.

Please indicate MIC MRSA ATCC 43300 recorded for NCC1OC(OC2C(C(=O)NCc3cn(CC(O)CN4CCN(c5cc6c(cc5F)c(=O)c(C(=O)O)cn6C5CC5)CC4)nn3)OC(OC3C(O)C(N)CC(N)C3OC3OC(CN)C(O)C(O)C3N)C2O)C(N)C(O)C1O (centres unmarked) 12 µg/mL

Please indicate MIC MRSA ATCC 43300 recorded for NCC1OC(OC2C(C(=O)Nc3ccc(-c4cn(CCCCCCN5CCN(c6cc7c(cc6F)c(=O)c(C(=O)O)cn7C6CC6)CC5)nn4)cc3)OC(OC3C(O)C(N)CC(N)C3OC3OC(CN)C(O)C(O)C3N)C2O)C(N)C(O)C1O (centres unmarked) 48 µg/mL

Please indicate MIC MRSA ATCC 43300 recorded for NCC1OC(OC2C(C(=O)NCc3cn(Cc4cccc(CN5CCN(c6cc7c(cc6F)c(=O)c(C(=O)O)cn7C6CC6)CC5)c4)nn3)OC(OC3C(O)C(N)CC(N)C3OC3OC(CN)C(O)C(O)C3N)C2O)C(N)C(O)C1O (centres unmarked) 6 µg/mL

Please indicate MIC MRSA ATCC 43300 recorded for NCC1OC(OC2C(C(=O)Nc3ccc(-c4cn(CC(O)CN5CCN(c6cc7c(cc6F)c(=O)c(C(=O)O)cn7C6CC6)CC5)nn4)cc3)OC(OC3C(O)C(N)CC(N)C3OC3OC(CN)C(O)C(O)C3N)C2O)C(N)C(O)C1O (centres unmarked) 24 µg/mL

Please indicate MIC MRSA ATCC 43300 recorded for NCC1OC(OC2C(C(=O)NCc3cn(CCN4CCN(c5cc6c(cc5F)c(=O)c(C(=O)O)cn6C5CC5)CC4)nn3)OC(OC3C(O)C(N)CC(N)C3OC3OC(CN)C(O)C(O)C3N)C2O)C(N)C(O)C1O (centres unmarked) 24 µg/mL

Please indicate MIC MRSA ATCC 43300 recorded for NCC1OC(OC2C(C(=O)NCc3cn(CCCN4CCN(c5cc6c(cc5F)c(=O)c(C(=O)O)cn6C5CC5)CC4)nn3)OC(OC3C(O)C(N)CC(N)C3OC3OC(CN)C(O)C(O)C3N)C2O)C(N)C(O)C1O (centres unmarked) 48 µg/mL

Please indicate MIC MRSA ATCC 43300 recorded for NCC1OC(OC2C(C(=O)Nc3ccc(-c4cn(CCOCCN5CCN(c6cc7c(cc6F)c(=O)c(C(=O)O)cn7C6CC6)CC5)nn4)cc3)OC(OC3C(O)C(N)CC(N)C3OC3OC(CN)C(O)C(O)C3N)C2O)C(N)C(O)C1O (centres unmarked) 24 µg/mL

Please indicate MIC MRSA ATCC 43300 recorded for NCC1OC(OC2C(C(=O)NCc3cn(Cc4ccc(CN5CCN(c6cc7c(cc6F)c(=O)c(C(=O)O)cn7C6CC6)CC5)cc4)nn3)OC(OC3C(O)C(N)CC(N)C3OC3OC(CN)C(O)C(O)C3N)C2O)C(N)C(O)C1O (centres unmarked) 3 µg/mL

Please indicate MIC MRSA ATCC 43300 recorded for NCC1OC(OC2C(COCc3cn(CCN4CCN(c5cc6c(cc5F)c(=O)c(C(=O)O)cn6C5CC5)CC4)nn3)OC(OC3C(O)C(N)CC(N)C3OC3OC(CN)C(O)C(O)C3N)C2O)C(N)C(O)C1O (centres unmarked) 6 µg/mL

Please indicate MIC MRSA ATCC 43300 recorded for NCC1OC(OC2C(C(=O)Nc3ccc(-c4cn(CCCN5CCN(c6cc7c(cc6F)c(=O)c(C(=O)O)cn7C6CC6)CC5)nn4)cc3)OC(OC3C(O)C(N)CC(N)C3OC3OC(CN)C(O)C(O)C3N)C2O)C(N)C(O)C1O (centres unmarked) 48 µg/mL

Please indicate MIC MRSA ATCC 43300 recorded for NCC1OC(OC2C(C(=O)Nc3ccc(-c4cn(CCCCN5CCN(c6cc7c(cc6F)c(=O)c(C(=O)O)cn7C6CC6)CC5)nn4)cc3)OC(OC3C(O)C(N)CC(N)C3OC3OC(CN)C(O)C(O)C3N)C2O)C(N)C(O)C1O (centres unmarked) 24 µg/mL

* * *

For each record, write down the corresponding MIC E. coli AG100B.
Test system: E. coli AG100B
Assay: MIC, double-microdilution, E. coli AG100B
Assay type: cell-based, Escherichia coli
Conditions: Table 4; kanamycin resistant, APH(3′)-I
I'd appreciate it if you wrote the number followed by its unit.

Please indicate MIC E. coli AG100B recorded for NCC1OC(OC2C(C(=O)NCc3cn(CCCN4CCN(c5cc6c(cc5F)c(=O)c(C(=O)O)cn6C5CC5)CC4)nn3)OC(OC3C(O)C(N)CC(N)C3OC3OC(CN)C(O)C(O)C3N)C2O)C(N)C(O)C1O (stereo not shown) 12 µg/mL

Please indicate MIC E. coli AG100B recorded for NCC1OC(OC2C(C(=O)Nc3ccc(-c4cn(CC(O)CN5CCN(c6cc7c(cc6F)c(=O)c(C(=O)O)cn7C6CC6)CC5)nn4)cc3)OC(OC3C(O)C(N)CC(N)C3OC3OC(CN)C(O)C(O)C3N)C2O)C(N)C(O)C1O (stereo not shown) 6 µg/mL

Please indicate MIC E. coli AG100B recorded for NCC1OC(OC2C(C(=O)Nc3ccc(-c4cn(CCCCCN5CCN(c6cc7c(cc6F)c(=O)c(C(=O)O)cn7C6CC6)CC5)nn4)cc3)OC(OC3C(O)C(N)CC(N)C3OC3OC(CN)C(O)C(O)C3N)C2O)C(N)C(O)C1O (stereo not shown) 24 µg/mL

Please indicate MIC E. coli AG100B recorded for NCC1OC(OC2C(C(=O)Nc3ccc(-c4cn(CCCCN5CCN(c6cc7c(cc6F)c(=O)c(C(=O)O)cn7C6CC6)CC5)nn4)cc3)OC(OC3C(O)C(N)CC(N)C3OC3OC(CN)C(O)C(O)C3N)C2O)C(N)C(O)C1O (stereo not shown) 24 µg/mL

* * *

Tested on: B. subtilis ATCC 6633
Test: MIC, double-microdilution, B. subtilis ATCC 6633
Type: cell-based
Conditions: Table 4
For each record, write down the corresponding MIC B. subtilis ATCC 6633.
Enter your answer as a number in µg/mL; do not include the unit.

Please indicate MIC B. subtilis ATCC 6633 recorded for NCC1OC(OC2C(C(=O)Nc3ccc(-c4cn(CCCCN5CCN(c6cc7c(cc6F)c(=O)c(C(=O)O)cn7C6CC6)CC5)nn4)cc3)OC(OC3C(O)C(N)CC(N)C3OC3OC(CN)C(O)C(O)C3N)C2O)C(N)C(O)C1O (stereo not drawn) [Compound 1c] 6

Please indicate MIC B. subtilis ATCC 6633 recorded for NCC1OC(OC2C(C(=O)Nc3ccc(-c4cn(CCN5CCN(c6cc7c(cc6F)c(=O)c(C(=O)O)cn7C6CC6)CC5)nn4)cc3)OC(OC3C(O)C(N)CC(N)C3OC3OC(CN)C(O)C(O)C3N)C2O)C(N)C(O)C1O (stereo not drawn) [Compound 1a] 6

Please indicate MIC B. subtilis ATCC 6633 recorded for NCC1OC(OC2C(C(=O)Nc3ccc(-c4cn(CCOCCN5CCN(c6cc7c(cc6F)c(=O)c(C(=O)O)cn7C6CC6)CC5)nn4)cc3)OC(OC3C(O)C(N)CC(N)C3OC3OC(CN)C(O)C(O)C3N)C2O)C(N)C(O)C1O (stereo not drawn) [Compound 1g] 12
